Assay: chemical genetic growth profiling, strain panel (AID 1159580);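 note: tested at 20 µM; growth read once vehicle control cultures reached saturation at 30 °C; 1 = growth at the plate median or of vehicle wells; lower values mean less growth of the strain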
Conditions: S. cerevisiae deletion strains, growth OD, locus YNR052C, strain pop2, active compounds read low
Among all 5,500 compounds or so, about 2,000 (36%) were called active. About 18% were inconclusive and are not listed. Some of the results follow.
readout: normalized growth
Simply state the number, no unit and no words.

Some solved entries appear below for comparison.
>>> assay_value("C[C@@H]1CCC2[C@](C)(CO)[C@@H](O)CC[C@]2(C)[C@@]12CC[C@@](CO)(CCO)O2 (some centres undefined)")
0.983
>>> assay_value("COc1ccc(-c2cc(=O)c3c(O)c(OC)c(OC)cc3o2)cc1O")
0.973
>>> assay_value("COc1ccc(-c2cc(=O)c3c(O)cc(O)cc3o2)cc1")
0.973
>>> assay_value("NCCCN")
0.992
>>> assay_value("C[C@H]1[C@H](C)CC[C@]2(C(=O)O)CC[C@]3(C)C(=CCC4[C@@]5(C)C[C@@H](O)[C@H](O)[C@@](C)(CO)C5[C@H](O)C[C@]43C)[C@H]12 (some centres undefined)")
0.914

Shifting focus to the compound that follows.
Find the recorded normalized growth belonging to COC(=O)CC1C(C)(C)C(OC(C)=O)[C@@H]2[C@@H](OC(C)=O)[C@]34O[C@@]2(O)[C@]1(C)C3CC[C@]1(C)C4=CC(=O)O[C@H]1c1ccoc1 (some centres undefined) and report it.
1.06

###

Assay: chemical genetic growth profiling, strain panel (AID 1159580);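 note: tested at 20 µM; growth read once vehicle control cultures reached saturation at 30 °C; 1 = growth at the plate median or of vehicle wells; lower values mean less growth of the strain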
Settings: S. cerevisiae deletion strains, growth OD, locus YHR079C, strain IRE1
The campaign covered roughly 5,500 compounds. About 2,000 (36%) were called active. About 18% were inconclusive and are not listed. Cut-off read from the data, not from the text of the source: active = normalized growth mostly below about 0.91 (no sharp cut-off); inconclusive = no clear call, values can overlap the other calls; inactive = mostly above about 0.92. The list shows a part of the results.
Select the correct class. Options are active, inactive and nothing else.

>>> label_class("CC1CCCC(C)N1NC(=O)c1ccc(Cl)c(S(N)(=O)=O)c1 (stereo not drawn)")
"inactive"

Fill in: this test's call for COC1=CC(=O)C=C(OC)C1=O is ___
inactive

I would be grateful if you could indicate the recorded call for O=C1Nc2ccccc2/C1=C\c1c[nH]c2ccccc12 .
active

Check the results log: what was the call for Clc1cccc(Cl)c1C1CC(c2ccccc2)=Nc2ccccc2S1 (stereo not drawn) ?
inactive

Hello, I am checking results. What call was entered for O=C(O)CN(CCN(CC(=O)O)CC(=O)O)CC(=O)O ?
inactive

Please share the test call associated with CSc1nc(NC(C)C)nc(NC(C)C)n1 .
inactive

In this assay, the call recorded for CC(=O)[C@@]1(O)CCC2C3C=C(Cl)C4=CC(=O)[C@@H]5CC5[C@]4(C)C3CC[C@@]21C (stereo partly drawn) was what?
inactive

For Cc1c(C(N)=O)cc([N+](=O)[O-])cc1[N+](=O)[O-] , which call appears in the assay record?
inactive

Tell me the recorded outcome of this test for Cc1ccccc1N1C(=O)c2cc(S(N)(=O)=O)c(Cl)cc2NC1C (stereo not drawn) .
inactive

Each compound tested received a call. Report the one for CO/N=C1/CC(C)(C)Cc2c(-c3ccn(C(=O)Nc4cccc(Cl)c4)n3)sc(SC)c21 .
inactive

Give the logged outcome of this assay for the following compound: NC(=O)c1ccc([N+](=O)[O-])cc1Cl
inactive

Please share the test call associated with Nc1nc(/C(=C/CC(=O)O)C(=O)N[C@@H]2C(=O)N3C(C(=O)O)=CCS[C@H]23)cs1 .
inactive

Entry COc1nc(NC(C)C)nc(NC(C)C)n1 : call = ?
inactive

Hi team, can someone confirm the assay call for CC1(C)O[C@@H]2CC3C4C[C@H](F)C5=CC(=O)CC[C@]5(C)C4[C@@H](O)C[C@]3(C)[C@]2(C(=O)CO)O1 (stereo partly drawn) ?
inactive

// return assay outcome for CC(C)(N)Cc1ccccc1
inactive

Hi team, can someone confirm the assay call for O=c1[nH][nH]c(=O)n1CCCc1cc2cccc3ccc4cccc1c4c32 ?
inactive

Tell me the assay call for O=c1c(-c2ccc(O)cc2)coc2c(C3O[C@H](CO)[C@@H](O)[C@H](O)[C@H]3O)c(O)ccc12 (stereo partly drawn) please.
inactive

Look up the recorded call for N/C(=N/OC(=O)c1cnn(-c2ccc([N+](=O)[O-])cc2)c1C(F)(F)F)c1ccc(Cl)cc1 in this test.
inactive

Could you kindly confirm the outcome this assay logged for NC(=O)c1cc([N+](=O)[O-])cc([N+](=O)[O-])c1 ?
inactive

Check the results log: what was the call for O=C(Nc1ccccc1C(=O)O)OCC1c2ccccc2-c2ccccc21 ?
inactive
